assay remarks: Plasma and brain pharmacokinetics in rats, 1 and 7 days oral administration
Type: in vivo, Sprague-Dawley rats
experimental context: both sexes, Sprague-Dawley, po; rat brain; Day 1; 2.67 g/kg p.o.
endpoint: Tmax

{"structure string": "OC[C@H]1O[C@H](O[C@H]2O[C@H](CO)[C@@H](O)[C@H](O)[C@H]2O)[C@H](O)[C@@H](O)[C@@H]1O", "endpoint": "Tmax", "result": "15 min"}

---

assay remarks: Plasma and brain trehalose levels 30 min post-dose in rat efficacy study (LC-MS/MS)
Assay type: in vivo, Sprague-Dawley rats
experimental context: Sprague-Dawley, rat, plasma; rats; 2.67 g/kg once daily oral gavage; 30 min post-dose; read-out: Plasma trehalose level
endpoint: concentration at 30 min (ng/mL)

{"structure string": "OC[C@H]1O[C@H](O[C@H]2O[C@H](CO)[C@@H](O)[C@H](O)[C@H]2O)[C@H](O)[C@@H](O)[C@@H]1O", "endpoint": "concentration at 30 min", "readout number": 6380}
